Kindly supply the reported GI50 values for the records listed here.
Test system: NCI-H23
assay.remarks: NCI tumour cell line growth inhibition, 48 h
Calls of active or inactive are those of the source. No stated cut-off is given here; in the data, active = GI50 up to about 1.1 µM and inactive = higher.

Here is how some compounds turned out for GI50.
COC(=O)c1cc2/c(=N/O)c3ccccc3sc2o1	> 100 µM (inactive)
C=C1c2ccccc2N(S(=O)(=O)c2ccc(C)cc2)C12CCCCC2	25.3 µM (inactive)
CC(=O)O[C@H]1CC[C@@]2(C)C(=CC[C@@H]3C2CC[C@]2(C)Nc4c(cnn4-c4ccccc4)CC32)C1 (stereo not given in full)	28.2 µM (inactive)

Provide GI50 values for the following items, in order.
1. CC(C)OCC(O)COc1ccc2ccc(=O)oc2c1 (stereo not given)
2. CCOc1cnc(C(O)(c2ccccc2)c2ccccc2)o1

1. > 100 µM (inactive)
2. > 100 µM (inactive)

These entries and their values trace back to ChEMBL document CHEMBL1201862.
